system: NCI-H460; experiment: Antiproliferative activity against NCIH-460 (human lung) cell line.; type: functional, cell-based
assayReadout: IC50 (nM)

compound	readingUnit	IC50
CN(C)CC1Cc2cccc3c(C4=C(c5c[nH]c6ccccc56)C(=O)NC4=O)cn(c23)C1 (centres undefined)	nM	4750

A: O=C1NC(=O)c2c1c1c3ccccc3ccc1c1c2c2cccc3c2n1CC(CO)C3 (centres undefined)
B: COc1ccc2c(c1)[nH]c1c2c2c(c3c4cccc5c4n(c13)CC(CO)C5)C(=O)NC2=O (centres undefined)
C: O=C1NC(=O)c2c1c1c3ccc(F)cc3[nH]c1c1c2c2cccc3c2n1CC(CO)C3 (centres undefined)
D: O=C1NC(=O)C(c2cn3c4c(cccc24)CC(CCl)C3)=C1c1c[nH]c2cc(F)ccc12 (centres undefined)
// ascending sort on recorded IC50 Form entry: ranked labels (order as requested).
C, A, B, D
(C: 430 nM, A: 740 nM, B: 1960 nM, D: 5650 nM)

P: O=C1NC(=O)c2c1c1c3ccccc3[nH]c1c1c2c2cccc3c2n1CCC3CO (centres undefined)
Q: O=C1NC(=O)c2c1c1c3ccc(Br)cc3[nH]c1c1c2c2cccc3c2n1CC(CO)C3 (centres undefined)
Please state the entry with greater IC50 among P and Q . Indicate your choice by writing its label.
P
(P: 540 nM, Q: 360 nM)

---

biological target: Cyclin-dependent kinase 4/cyclin D1 (Homo sapiens, UniProt P11802); assay: Inhibition of Cyclin D1-cyclin-dependent kinase 4.; format: protein-complex assay
Sequence (P11802 whole entry): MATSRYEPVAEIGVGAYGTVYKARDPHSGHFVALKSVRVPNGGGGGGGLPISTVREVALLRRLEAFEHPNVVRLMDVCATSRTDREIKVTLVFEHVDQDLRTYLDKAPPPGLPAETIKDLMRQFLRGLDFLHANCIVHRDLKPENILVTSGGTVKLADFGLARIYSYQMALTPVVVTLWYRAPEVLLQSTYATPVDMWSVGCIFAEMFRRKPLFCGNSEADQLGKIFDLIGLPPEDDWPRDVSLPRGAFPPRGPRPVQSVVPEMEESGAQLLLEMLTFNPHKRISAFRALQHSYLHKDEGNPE
Sequence (P24385 whole entry, further chain): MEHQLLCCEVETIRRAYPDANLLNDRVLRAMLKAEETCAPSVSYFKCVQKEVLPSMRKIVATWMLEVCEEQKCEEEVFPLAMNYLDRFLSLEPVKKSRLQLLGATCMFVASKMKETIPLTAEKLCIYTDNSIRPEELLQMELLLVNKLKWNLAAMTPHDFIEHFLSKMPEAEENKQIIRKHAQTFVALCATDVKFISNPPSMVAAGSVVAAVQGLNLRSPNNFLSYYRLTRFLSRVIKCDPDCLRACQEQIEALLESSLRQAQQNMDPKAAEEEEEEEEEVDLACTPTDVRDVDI
assayReadout: IC50 (nM)

compound	assayReadout	experimentalResult
O=C1NC(=O)C(c2cn3c4c(cccc24)CC(CCl)C3)=C1c1c[nH]c2cc(F)ccc12 (stereo not drawn)	IC50	64
COC(=O)CC(NCC1Cc2cccc3c(C4=C(c5c[nH]c6cc(F)ccc56)C(=O)NC4=O)cn(c23)C1)C(=O)OC (stereo not drawn)	IC50	671
O=C1NC(=O)c2c1c1c3ccccc3[nH]c1c1c2c2cccc3c2n1CC(CO)CC3 (stereo not drawn)	IC50	126
O=C1NC(=O)c2c1c1c3ccc(Br)cc3[nH]c1c1c2c2cccc3c2n1CC(CO)C3 (stereo not drawn)	IC50	10
O=C1NC(=O)c2c1c1c3ccc(F)cc3[nH]c1c1c2c2cccc3c2n1C(CO)CC3 (stereo not drawn)	IC50	2

P: CN(C)CC1Cc2cccc3c(C4=C(c5c[nH]c6ccccc56)C(=O)NC4=O)cn(c23)C1 (stereo not drawn)
Q: CNCC1Cc2cccc3c(C4=C(c5c[nH]c6cc(F)ccc56)C(=O)NC4=O)cn(c23)C1.Cl (stereo not drawn)
Kindly compare P with Q and tell me which has the lower IC50 figure. Output the label that corresponds to your choice.
Q
(Q: 8 nM, P: 898 nM)

---

system: NCI-H460; test: Antiproliferative activity against NCIH-460 (human lung) cell line.; type: functional, cell-based
pIC50: −log10 of the molar value.
assayReadout: pIC50

In the examples that follow, each entry is paired with its recorded pIC50.
compound	experimentalResult
CNCC1Cc2cccc3c(C4=C(c5c[nH]c6cc(F)ccc56)C(=O)NC4=O)cn(c23)C1.Cl (centres undefined)	5.29
O=C1NC(=O)c2c1c1c3ccccc3ccc1c1c2c2cccc3c2n1CCC3CO (centres undefined)	5.76
O=C1NC(=O)c2c1c1c3ccccc3[nH]c1c1c2c2cccc3c2n1CC(CO)CC3 (centres undefined)	6.48

A: O=C1NC(=O)c2c1c1c3ccc(F)cc3[nH]c1c1c2c2cccc3c2n1C(CO)CC3 (centres undefined)
B: O=C1NC(=O)c2c1c1c3ccccc3[nH]c1c1c2c2cccc3c2n1CC(CO)C3 (centres undefined)
Which numeric pIC50 is bigger, that of A or that of B ? # answer = label of selected item
A
(A: 6.59, B: 6.02)

I: O=C1NC(=O)c2c1c1c3ccccc3ccc1c1c2c2cccc3c2n1C(CO)CC3 (centres undefined)
II: Cn1ccc2ccc3c(c4c(c5c6cccc7c6n(c35)CC(CO)C7)C(=O)NC4=O)c21 (centres undefined)
Pick the one with the larger pIC50: I vs II // output: label of the selected item
II

From: ChEMBL document CHEMBL1149211
